src = patent US20240408119A1

Some compounds, each annotated with its measured Condition 2 Conversion (%).
- test: Hydrolysis Assay - Condition 2 (DI Water)
- Type: physicochemical
- cond: 25° C., 0.5 mM, 24 h
Report the value in % with no unit label.

chem smiles: COc1ccc([C@@]23CCC(OC(=O)OC(C)(C)C)=C[C@@H]2N(C)CC3)cc1OC
measured property: Condition 2 Conversion (%)
measured: 100
//
chem smiles: CCN(C)C(=O)OC1=C[C@@H]2N(C)CC[C@]2(c2ccc(OC)c(OC)c2)CC1
measured property: Condition 2 Conversion (%)
measured: 0
//
chem smiles: COc1ccc([C@@]23CCC(OC(=O)N(C)C)=C[C@@H]2N(C)CC3)cc1OC
measured property: Condition 2 Conversion (%)
measured: 0
//
chem smiles: COc1ccc([C@@]23CCC(OC(=O)N4CCN(C)CC4)=C[C@@H]2N(C)CC3)cc1OC
measured property: Condition 2 Conversion (%)
measured: 0

API: the following record is the query input.
Exercise: Look up Condition 2 Conversion (%) of `COc1ccc([C@@]23CCC(OP4(=O)OCC(C)(C)CO4)=C[C@@H]2N(C)CC3)cc1OC` and report it.
Solution: 0
